- Tested on: BT-549 breast
- ASSAY_SUMMARY: NCI tumour cell line growth inhibition, 48 h
ASSAY_READOUT: TGI

// known answers, use as guide
COMPOUND	TGI
Nc1nc(N)c2nc(CNc3ccc(C(=O)NC(CCCCNC(=O)c4ccccc4C(=O)O)C(=O)O)cc3)cnc2n1 (centres undefined)	> 100 µM
N#Cc1nc(COCCOCc2ccc(F)cc2)oc1N	> 100 µM
Cc1nc2c(=O)n3c4c(cccc4c2o1)CCC3	> 100 µM
CC1(C)[C@H]2Cc3cc(-c4cc5c(cn4)[C@@H]4C[C@H]([C@@H]5[C@@H]5c6cc(-c7cc8c(cn7)[C@@H]7C[C@H](C8)C7(C)C)ncc6[C@@H]6C[C@H]5C6(C)C)C4(C)C)ncc3[C@@H]1C2	> 100 µM
CC1OC(OC2C(Oc3cc(O)c4c(c3)O[C@H](c3ccc(O)cc3)CC4=O)OC(CO)C(O)C2O)C(O)C(O)C1O (some centres undefined)	> 100 µM
CCCCCC(O)C1C(=O)OC(C)C(O)/C=C/C=C/C=C/C=C/C=C(\C)C(O)C(O)C(O)CC(O)CC(O)CC(O)CC(O)CC1O (centres undefined)	> 100 µM
O=C1OC(CN2CCOCC2)CN1/N=C/c1ccc([N+](=O)[O-])o1 (centres undefined)	> 100 µM
COc1ccc(-c2nn(-c3cccc(NC(=O)c4ccc(N5CCOCC5)c(C(F)(F)F)c4)c3)cc2-c2ccncc2)cc1Cl	> 50 µM

Next compound, please.
For COc1ccc(NC2CC(C)N(C(=O)c3ccccc3)O2)cc1 (centres undefined) on BT-549 breast, measured TGI was > 10 µM

###

- Tested on: HCT-15 colon
- ASSAY_SUMMARY: NCI tumour cell line growth inhibition, 48 h
# reported TGI; entries follow

COMPOUND	STUDY_SYSTEM	ASSAY_READOUT	VAL
c1ccc2cc3c(cc2c1)nc1ccccn13	HCT-15 colon	TGI	> 100 µM

TGI reading for CCCNc1nc2ccccc2c2c1S(=O)(=O)c1ccc(Cl)cc1C2=O : > 50 µM

TGI reading for COc1cc2c(cc1OC)C(=O)N(NC1=NCCN1)C2=O : > 100 µM

TGI reading for NCCSCCc1ccccc1 : > 100 µM

TGI reading for CCCCNC(=S)/N=C/c1c(O)c2ccccc2[nH]c1=O : > 10 µM

TGI reading for CCN(CC)CCN(C(=O)c1ccc(F)cc1)c1ccccc1N : > 10 µM

TGI reading for N#CCCN(CCN(CCC#N)C(=O)Nc1ccccc1)C(=O)Nc1ccccc1 : > 100 µM

###

- Tested on: MOLT-4 leukemia
- ASSAY_SUMMARY: NCI tumour cell line growth inhibition, 48 h
# reported TGI; entries follow
A number alone suffices; assume µM.

COMPOUND	VAL
Clc1nc(Cl)c2ncn(Cc3ccc(Cn4cnc5c(Cl)nc(Cl)nc54)cc3)c2n1	16.1

Next compound, please.
TGI reading for O=C1C=CC(CC(=O)c2ccc3ccccc3c2)O1 (centres undefined) : 65.6

###

- Tested on: OVCAR-5 ovarian
- ASSAY_SUMMARY: NCI tumour cell line growth inhibition, 48 h
ASSAY_READOUT: TGI

// known answers, use as guide
COMPOUND	TGI
CCC(=O)N/N=C(\C=C\c1cccc(O)c1)c1sc(Nc2ccc(C)cc2[N+](=O)[O-])nc1C	> 100 µM
O=c1ccn(C2OC(CN(O)CCC3C(CO)OC(n4ccc(=O)[nH]c4=O)C3O)C(O)C2O)c(=O)[nH]1 (stereo not given)	> 100 µM
O=C(/C=C(\O)c1ccccc1)c1cc(-c2ccccc2)n(-c2ccccc2)n1	> 100 µM
O=C1NC2(CCN(CCCC3(c4ccc(F)cc4)OCCO3)CC2)Oc2ccccc21	> 100 µM
COC1=C2CC(C)CC(OC)C(O)C(C)/C=C(\C)C(OC(N)=O)C(OC)/C=C\C=C(/C)C(=O)NC(=C(/C=N/N3CCCCC3)C1=O)C2=O (stereo not given)	34.5 µM
Cc1ccc(S(=O)(=O)NNC2Oc3cc4c(cc3C(c3ccccc3O)C2C)OCO4)cc1 (stereo not given)	30.5 µM
O=c1oc2ccc([N+](=O)[O-])cc2c(Nc2ccc3c(c2)S(=O)(=O)c2ccccc2O3)c1[N+](=O)[O-]	> 100 µM
CC(=O)O[C@@H](C1C[C@@H](C)[C@H]2[C@@](O)(O1)[C@H](O)[C@@]1(C)C3=CC[C@H]4C(C)(C)[C@@H](OC5OCC(O)C(O)C5O)CC[C@@]45C[C@@]35CC[C@]21C)C(C)(C)O (stereo not given in full)	56.6 µM
CNCCC=C1c2ccccc2CCc2ccccc21	30.2 µM
Cc1ncc([N+](=O)[O-])n1CCNC(=O)Cn1c([N+](=O)[O-])cnc1C	> 100 µM

TGI reading for COc1ccc(Nc2c3ccccc3nc3[nH]c4ccccc4c23)cc1 : > 50 µM

TGI reading for O=C1Oc2cc3c(c4cccc1c24)O[C@H](c1ccccc1)[C@@H](c1ccccc1)[C@@H]3c1ccc(Cl)cc1 : > 100 µM

TGI reading for CC1=C(/C=C/C(C)=C/C=C/C(C)=C/CO)C(C)(C)CCC1 : 61.2 µM

TGI reading for C=C1[C@@H]([C@@]2(C)C=CC(=O)C(C)(C)[C@@H]2CC(=O)OC)CC[C@@]2(C)C(c3ccoc3)OC(=O)[C@H]3O[C@]132 (stereo not given in full) : > 100 µM

TGI reading for CC(=O)ON(C(C)=O)c1ccc(-c2nc3ccccc3s2)cc1C : 55.2 µM
